- System: PC-3 prostate
- TEST_NAME: NCI-60 one-dose screen, 48 h (100 = growth as untreated, 0 = no growth, -100 = all killed)
- STUDY_CONDITIONS: 10 µM unless noted
Compounds without any hit were thinned out: in the full panel of roughly 83,000, 20% have a hit.
PROPERTY_MEASURED: growth (%)
The answer is to be given in %; state only the numeric part.

Report growth for "N#C/C(=C\c1c(-c2ccccc2)[nH]c2ccccc12)C(N)=O" please.
69.8

Report growth for "COc1cc(NS(=O)(=O)c2ccc(-c3cnc(C4CC4)o3)cc2)ccc1F" please.
33.9

Report growth for "Nc1n[nH]c2cccc(C#Cc3cccc(NC(=O)c4cc(F)cc(C(F)(F)F)c4)c3)c12" please.
64.1

Report growth for "COC(=O)c1c(C)c2n(c1C)C(=O)C(c1ccccc1)=C2" please.
84.4

Report growth for "N#Cc1c(-c2ccccc2)cc(-c2ccc(Nc3nc(Nc4ccc(Cl)cc4)nc(Nc4ccc(Cl)cc4)n3)cc2)nc1N" please.
20.7

* * *

- System: SF-295 CNS
- TEST_NAME: NCI-60 one-dose screen, 48 h
- STUDY_CONDITIONS: 10 µM unless noted
The panel holds about 83,000 compounds, 20% with a hit somewhere; the sample as a whole holds those more often. Calls of active or inactive are those of the source. How the source made its calls: active means growth percent below 10; inactive means the rest.
Could you please pick one outcome from this set? active, inactive

Tell me the recorded outcome of this test for "C=C(C)[C@@H]1CCC[C@]2(COS(=O)(=O)c3ccc(C)cc3)CC[C@]3(C)[C@@H](CC[C@@H]4[C@@]5(C)CCCNC(C)(C)[C@@H]5CC[C@]43C)[C@@H]12" .
active

Tell me the recorded outcome of this test for "Cc1ccc(-c2nc([P+](c3ccccc3)(c3ccccc3)c3ccccc3)c(S(=O)(=O)c3ccc(C)cc3)o2)cc1" .
inactive

Tell me the recorded outcome of this test for "COc1ccc(C(C)=O)cc1S(=O)(=O)Nc1c(N)nc(SC)[nH]c1=O" .
inactive

Tell me the recorded outcome of this test for "CCC1=C[C@@H]2C[C@]3(C(=O)OC)c4[nH]c5ccccc5c4CC[N@+](CC(=O)Nc4cc5c(cc4OC)N(C)[C@H]4[C@@](O)(C(=O)OC)[C@H](OC(C)=O)[C@]6(CC)C=CCN7CC[C@]54[C@@H]76)(C2)[C@H]13" .
inactive

Tell me the recorded outcome of this test for N#Cc1ccc(O)c(C2=NCC(c3ccccc3)O2)c1 (stereo not given) .
inactive

Tell me the recorded outcome of this test for "CN(C)CCNC(=O)c1cc2c3cc(Cl)ccc3[nH]c2c2ncccc12" .
inactive

Tell me the recorded outcome of this test for "COc1cc(-c2cncn2-c2ccc(-c3nc4ccc(F)cc4s3)cc2)ccc1F" .
inactive

Tell me the recorded outcome of this test for "Nc1[nH]n2cc(-c3ccccc3)nc2c1N=Nc1ccc(S(N)(=O)=O)cc1" .
inactive

Tell me the recorded outcome of this test for "COc1cccc(/C=C2\COc3ccc(O)c(O)c3C2=O)c1" .
inactive

Tell me the recorded outcome of this test for CC(=O)N1N=C(c2ccc(Nc3nc(Nc4ccccc4)nc(Nc4ccccc4)n3)cc2)CC1c1cccc([N+](=O)[O-])c1 (stereo not given) .
inactive

Tell me the recorded outcome of this test for "CCN(CC)CCn1c2ccc(OC)cc2c2sc3cc(OC)ccc3c(=O)c21" .
inactive

Tell me the recorded outcome of this test for "O=C1NC(=C(Cl)Cl)/C(=N\S(=O)(=O)NCc2ccccc2)N1" .
inactive

Tell me the recorded outcome of this test for "C=CCc1c(O)c(C(=O)/C=C/c2ccccc2)c(OC)c2ccoc12" .
inactive

Tell me the recorded outcome of this test for "CCOC(=O)c1c2c(n3cccc(F)c13)C(=O)c1ncccc1C2=O" .
active

Tell me the recorded outcome of this test for "O=C(/C=C/c1cccs1)Nc1ncc(Cc2ccccc2F)s1" .
active

Tell me the recorded outcome of this test for "CCNCCNc1cc(C2CCCCC2)c(C#N)c2nc3ccccc3n12" .
active

Tell me the recorded outcome of this test for "CC(C)(Sc1cc(C(C)(C)C)c(O)c(C(C)(C)C)c1)Sc1cc(C(C)(C)C)c(OC(=O)CCCC(=O)O)c(C(C)(C)C)c1" .
inactive

Tell me the recorded outcome of this test for "Cn1cc(-c2ccc3nc(-c4ccc(CC(=O)ONc5cc(C(C)(C)C)on5)cc4)cnc3c2)cn1" .
inactive

Tell me the recorded outcome of this test for "O=C(Nc1nc2cc(C(=O)N3CCN(C(c4ccccc4)c4ccccc4)CC3)ccc2o1)c1ccc(NC2CCCCC2)c([N+](=O)[O-])c1" .
inactive

Tell me the recorded outcome of this test for "Clc1cccc(Nc2ncnc3ccc(-c4cnc5[nH]ccc5c4)cc23)c1" .
inactive

Tell me the recorded outcome of this test for "COc1ccc(Cc2cnc(NC(=O)c3cc(C)oc3C)s2)cc1" .
inactive

Tell me the recorded outcome of this test for "O=C(CSc1nc2sc3c(c2c(=O)n1-c1ccccc1)CCCCC3)N/N=C/c1cccc([N+](=O)[O-])c1" .
inactive

Tell me the recorded outcome of this test for "CCOc1nc(-c2ccccc2)cc2c(O)c(C(=O)N/N=C/c3ccccc3)[nH]c(=O)c12" .
inactive

Tell me the recorded outcome of this test for CCOC(=O)C1=C(N)Oc2c(sc3c(F)cccc23)C1c1ccc(O)cc1 (stereo not given) .
inactive

Tell me the recorded outcome of this test for "COC(=O)[C@]12CCC(C)(C)C[C@H]1[C@H]1/C(=N/OCCc3nn[nH]n3)C[C@@H]3[C@@]4(C)CC[C@H](OC(C)=O)C(C)(C)[C@@H]4CC[C@@]3(C)[C@]1(C)CC2" .
inactive

Tell me the recorded outcome of this test for "CSc1oc(C)nc1[P+](c1ccccc1)(c1ccccc1)c1ccccc1" .
inactive

Tell me the recorded outcome of this test for "COc1ccc2c(c1OC)CO[C@@H]2[C@H]1c2c(cc3c(c2OC)OCO3)CCN1S(=O)(=O)c1cn(C)cn1" .
inactive

Tell me the recorded outcome of this test for "O=C1C(=O)N(Cc2ccc(-c3ccccc3)cc2)c2ccc(OC(F)(F)F)cc21" .
inactive

Tell me the recorded outcome of this test for "CCOC(=O)c1cc(C(=O)c2cc(OC)c(OC)c(OC)c2)n2ncccc12" .
inactive

Tell me the recorded outcome of this test for "Nc1ncnc2c1c(-c1cccc(Cl)c1)nn2CC(=O)N1CCOCC1" .
inactive

Tell me the recorded outcome of this test for COc1cc2nc3cc([N+](=O)[O-])ccc3c(NCCNCC(C)O)c2cc1OC (stereo not given) .
inactive

Tell me the recorded outcome of this test for C=C1CC[C@@H]2[C@](C)(COC(C)=O)[C@H](OC(C)=O)CC[C@@]2(C)[C@@H]1CC(Nc1ccc(S(=O)(=O)Nc2ncccn2)cc1)C1=CCOC1=O (stereo not given in full) .
inactive

Tell me the recorded outcome of this test for "COc1ccc(Nc2ncc(Br)c(NCCCNC(=O)C3CCCC3)n2)cc1" .
inactive

Tell me the recorded outcome of this test for "Cc1ccc(NC(=O)c2sc3nc(C)c(Br)c(C)c3c2N)cc1" .
inactive

Tell me the recorded outcome of this test for "C=C1C(=O)O[C@H]2[C@H]1CC/C(COC(=O)c1cc3ccccc3s1)=C\CC[C@@]1(C)O[C@@H]21" .
inactive
